The following molecules are shown together with reported AC50 values.
# assayed-system: FAD-linked sulfhydryl oxidase ALR (Homo sapiens, UniProt P55789)
# Sequence (P55789 whole entry): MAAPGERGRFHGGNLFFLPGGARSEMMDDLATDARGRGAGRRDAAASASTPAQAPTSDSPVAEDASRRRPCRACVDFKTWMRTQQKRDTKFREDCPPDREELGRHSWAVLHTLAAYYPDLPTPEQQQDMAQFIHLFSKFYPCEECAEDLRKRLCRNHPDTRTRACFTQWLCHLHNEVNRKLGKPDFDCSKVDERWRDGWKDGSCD
# experiment-description: ALR-catalysed DTT oxidation blockers – biochemical, H2O2 detection, luminescence, cherry-pick, dose response (AID 493248)
Calls of active or inactive are those of the source.

> print(dat)
                                   molecule                            assayed.system  assay.endpoint   recorded.result
1  CC(C)n1cc(/C=N/Nc2ccc(C(=O)O)cc2)c2ccccc21  FAD-linked sulfhydryl oxidase ALR (Homo sapiens, UniProt P55789)            AC50   192 nM (active)
2  O=[N+]([O-])c1c(O)nc(/C=C\c2cccc(Cl)c2)nc1O  FAD-linked sulfhydryl oxidase ALR (Homo sapiens, UniProt P55789)            AC50   737 nM (active)
3       Oc1ccccc1N1CCN(c2nnnn2-c2ccccc2)CC1  FAD-linked sulfhydryl oxidase ALR (Homo sapiens, UniProt P55789)            AC50  7830 nM (active)
4   CC(=O)N1CCN(c2ccc(NCc3ccc(Br)o3)cc2)CC1  FAD-linked sulfhydryl oxidase ALR (Homo sapiens, UniProt P55789)            AC50   743 nM (active)
5              COc1ccc(-c2c[nH]nc2N)c(OC)c1  FAD-linked sulfhydryl oxidase ALR (Homo sapiens, UniProt P55789)            AC50   411 nM (active)
6             O=C(O)CCCCCNc1nc(S)nc2ccccc12  FAD-linked sulfhydryl oxidase ALR (Homo sapiens, UniProt P55789)            AC50  7380 nM (active)
7  CC(=O)Nc1ccc(S(=O)(=O)NC(C)C(=O)NC(C)c2ccccc2)cc1 (centres undefined)  FAD-linked sulfhydryl oxidase ALR (Homo sapiens, UniProt P55789)            AC50    83 nM (active)
8  O=C(NCc1nnc(S)n1-c1ccc(Br)cc1)c1ccc(S(=O)(=O)N2CCCC2)cc1  FAD-linked sulfhydryl oxidase ALR (Homo sapiens, UniProt P55789)            AC50  6960 nM (active)

Asked: // Input: "Cc1ccc2nc(-c3cccc(S(=O)(=O)N(C)C)c3)cn2c1" . Output its AC50 only.
Given back: 45 nM (active)

====

# assayed-system: Ubiquitin-conjugating enzyme E2 N (Homo sapiens, UniProt P61088);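 further: Dose-response confirmation in a TR-FRET assay detecting UBC13-driven polyubiquitin chain formation, inhibition measured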
# Sequence (P61088 whole entry): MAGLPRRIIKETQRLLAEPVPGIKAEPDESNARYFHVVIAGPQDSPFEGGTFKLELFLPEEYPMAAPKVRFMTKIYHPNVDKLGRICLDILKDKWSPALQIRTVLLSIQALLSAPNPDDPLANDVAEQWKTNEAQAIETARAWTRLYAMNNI
# Format: functional
Activity calls are given as the source filed them.
Mark one answer only. Choices: yes for active, no for inactive

Known results for compounds:
> print(dat)
                           structure.smiles  cat
1  O=C(Nc1ccc(C2=NCCN2)cc1)c1ccc(C(=O)Nc2ccc(C3=NCCN3)cc2)c(Cl)c1  yes
2  CCN(CCCNC(=O)c1cc2c(-c3cccc(OC)c3)nn(C)c2s1)Cc1ccccc1   no
3  Cc1cc(C(C)(C)CC(C)(C)C)ccc1OCCOCC[N+](C)(C)Cc1ccccc1  yes

Now look at this entry.
Asked: Outcome logged for "Cc1c(CCOC(=O)C23CC4(C)CC(C)(CC(C)(C4)C2)C3)sc[n+]1CC(=O)c1ccccc1" in this assay:
Given back: no

====

# assayed-system: Endoribonuclease toxin MazF (Escherichia coli K-12)
# Sequence (P0AE70 whole entry): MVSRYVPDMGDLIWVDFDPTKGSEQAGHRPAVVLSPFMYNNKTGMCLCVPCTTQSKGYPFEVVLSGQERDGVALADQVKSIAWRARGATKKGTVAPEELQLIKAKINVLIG
# experiment-description: substrate-only fluorescence increase artefacts – biochemical, single-stranded RNase substrate, counter-screen for MazEF activator project, dose response (AID 588502)
# Type: functional
Active and inactive are the calls of the source.
The following compounds are shown together with reported EC50 values.

Sample records with EC50:
> print(dat)
                           structure.smiles  assay.endpoint     recorded.result
1  Cc1cc(C(=O)N/N=C/c2ccc(-c3ccc([N+](=O)[O-])cc3C)o2)[nH]n1            EC50  > 99 µM (inactive)
2  O=[N+]([O-])c1ccc(NN=Cc2cccc3ccccc23)nc1            EC50  45.4 µM (inactive)
3  CN(C(=O)COC(=O)c1ccc([N+](=O)[O-])cc1N)c1ccccc1            EC50  > 99 µM (inactive)
4  CC(=O)Nc1ccc(C(=O)CSc2cc(C)c3cccc(C)c3n2)cc1            EC50  > 99 µM (inactive)

Proceeding to the next compound to report its EC50.
Asked: // Input: "O=C(C1=NN[C@@H]2C(=O)N(c3cccc(C(F)(F)F)c3)C(=O)[C@H]12)c1ccc2ccccc2n1" . Output its EC50 only.
Given back: > 99 µM (inactive)
